# credit: paper PMC8915576

target: MOPr (mMOR-Venus) / βarr1-luciferase (Mus musculus, UniProt P42866); assay: cell-based
Sequence (P42866 whole entry): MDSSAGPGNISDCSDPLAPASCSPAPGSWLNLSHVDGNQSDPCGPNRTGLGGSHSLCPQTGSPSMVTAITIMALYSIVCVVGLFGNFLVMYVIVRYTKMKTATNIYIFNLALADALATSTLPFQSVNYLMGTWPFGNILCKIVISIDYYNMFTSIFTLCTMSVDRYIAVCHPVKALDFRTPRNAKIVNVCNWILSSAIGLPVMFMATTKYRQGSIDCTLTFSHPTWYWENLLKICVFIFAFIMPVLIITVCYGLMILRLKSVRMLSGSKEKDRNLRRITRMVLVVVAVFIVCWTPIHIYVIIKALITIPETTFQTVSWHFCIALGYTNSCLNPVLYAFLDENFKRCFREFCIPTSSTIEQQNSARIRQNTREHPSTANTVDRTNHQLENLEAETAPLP
Sequence (P49407 whole entry, further chain): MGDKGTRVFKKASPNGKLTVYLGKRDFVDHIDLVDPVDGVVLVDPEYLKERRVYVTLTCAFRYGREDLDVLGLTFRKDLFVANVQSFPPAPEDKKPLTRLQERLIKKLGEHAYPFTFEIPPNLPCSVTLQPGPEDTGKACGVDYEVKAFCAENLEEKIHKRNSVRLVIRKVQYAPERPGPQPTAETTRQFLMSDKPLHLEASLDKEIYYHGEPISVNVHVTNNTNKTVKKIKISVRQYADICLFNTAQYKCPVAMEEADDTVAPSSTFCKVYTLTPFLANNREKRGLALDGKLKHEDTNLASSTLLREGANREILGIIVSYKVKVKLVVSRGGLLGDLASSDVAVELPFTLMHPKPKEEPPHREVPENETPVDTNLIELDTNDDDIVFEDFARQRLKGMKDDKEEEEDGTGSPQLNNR
measure_name: pEC50
For clarity, pEC50 is expressed as the negative log10 of concentration in mol/L.

Q: Any idea what its pEC50 is? The molecule is COc1ccc2c3c1O[C@H]1C(=O)CC[C@@]4(O)[C@@H](C2)N(C)CC[C@]314
Ans: 6.41
